- Test method notes: in vivo
- Experimental context: male, Dutch Belted, rabbit, 0.1 mg/eye, Calculated Concentration in vitreous humor
Where a SMILES comes first, the peptide text is derived from it.
Attribute measured: level at 72 h (µg/mL)
Respond numerically; units are µg/mL and should not be typed.

Reported level at 72 h for CC[C@H](C)[C@H](NC(=O)[C@H](Cc1ccc(O)cc1)NC(=O)[C@H](CC(N)=O)NC(=O)[C@@H](NC(=O)[C@H](C)NC(=O)CNC(=O)[C@H](CC(C)C)NC(=O)[C@H](Cc1ccc(O)cc1)NC(=O)[C@@H](NC(=O)[C@H](Cc1cnc[nH]1)NC(=O)[C@@H](N)Cc1cnc[nH]1)[C@@H](C)CC)C(C)C)C(=O)N[C@@H](Cc1ccc(O)cc1)C(N)=O [Compound 1] (H-HHIYLGAVNYIY-NH2) : what is it?
125

* * *

- Test method notes: in vivo
- Experimental context: male, Dutch Belted, rabbit, 0.05 mg/eye, Calculated Concentration in vitreous humor
Where a SMILES comes first, the peptide text is derived from it.
Attribute measured: level at 24 h
Mention the unit after the number when you answer.

Which measured level at 24 h value corresponds to CC[C@H](C)[C@H](NC(=O)[C@H](Cc1ccc(O)cc1)NC(=O)[C@H](CC(N)=O)NC(=O)[C@@H](NC(=O)[C@H](C)NC(=O)CNC(=O)[C@H](CC(C)C)NC(=O)[C@H](Cc1ccc(O)cc1)NC(=O)[C@@H](NC(=O)[C@H](Cc1cnc[nH]1)NC(=O)[C@@H](N)Cc1cnc[nH]1)[C@@H](C)CC)C(C)C)C(=O)N[C@@H](Cc1ccc(O)cc1)C(N)=O [Compound 1] (H-HHIYLGAVNYIY-NH2) ?
44000 ng/mL

* * *

- Test method notes: in vivo
- Experimental context: male, Dutch Belted, rabbit, 0.05 mg/eye, Calculated Concentration in retina
Where a SMILES comes first, the peptide text is derived from it.
Attribute measured: tissue level at time at 168 h (ng/g)
# unit: ng/g | format: bare number

# lookup: tissue level at time at 168 h of CC[C@H](C)[C@H](NC(=O)[C@H](Cc1ccc(O)cc1)NC(=O)[C@H](CC(N)=O)NC(=O)[C@@H](NC(=O)[C@H](C)NC(=O)CNC(=O)[C@H](CC(C)C)NC(=O)[C@H](Cc1ccc(O)cc1)NC(=O)[C@@H](NC(=O)[C@H](Cc1cnc[nH]1)NC(=O)[C@@H](N)Cc1cnc[nH]1)[C@@H](C)CC)C(C)C)C(=O)N[C@@H](Cc1ccc(O)cc1)C(N)=O [Compound 1] (H-HHIYLGAVNYIY-NH2)
204

* * *

- Test method notes: in vivo
- Experimental context: male, Dutch Belted, rabbit, Terminal t1/2 in Retina
Where a SMILES comes first, the peptide text is derived from it.
Attribute measured: half-life

State the recorded half-life for this entry: CC[C@H](C)[C@H](NC(=O)[C@H](Cc1ccc(O)cc1)NC(=O)[C@H](CC(N)=O)NC(=O)[C@@H](NC(=O)[C@H](C)NC(=O)CNC(=O)[C@H](CC(C)C)NC(=O)[C@H](Cc1ccc(O)cc1)NC(=O)[C@@H](NC(=O)[C@H](Cc1cnc[nH]1)NC(=O)[C@@H](N)Cc1cnc[nH]1)[C@@H](C)CC)C(C)C)C(=O)N[C@@H](Cc1ccc(O)cc1)C(N)=O [Compound 1] (H-HHIYLGAVNYIY-NH2)
168 h
